Please provide measured TGI for the entries that follow.
# Test system: OVCAR-5 ovarian
# test method notes: NCI tumour cell line growth inhibition, 48 h

COC(=O)[C@H](Cc1cn(C)cn1)NC(=O)[C@H](CC(C)C)NC(=O)Nc1cc(C(F)(F)F)cc(C(F)(F)F)c1 = > 10 µM
NC(=O)c1ncn(C2C=CC(CP(=O)(O)O)C2)c1N (centres undefined) = > 100 µM
COc1cc(OCCN(C)C)c2[nH]c(C(=O)N3CC(CCl)c4c3cc(N)c3ccccc43)cc2c1 (centres undefined) = 0.213 µM
NC1CCN(c2nc3ccccc3c3c2CCCC3)CC1 = 19 µM
CC1(C)CN(CC(=O)O)CC(Cc2ccc(OCC(=O)O)cc2)N(CC(=O)O)CC(C)(C)SS1 (centres undefined) = > 100 µM

For each of the compounds below, note its TGI.
1. O=S1Nc2cccc(C(F)(F)F)c2S1 (centres undefined)
2. CC(=O)N1c2ccccc2N(C(C)=O)C1c1ccc(C2N(C(C)=O)c3ccccc3N2C(C)=O)[nH]1
3. Cc1nc2ccccc2c(=O)n1/N=C(\N=Nc1ccccc1)c1ccccc1Cl
4. COc1cc2c(c(OC)c1OC)-c1ccc(SC)c(=O)cc1[C@@H](NC(=O)c1cccc([N+](=O)[O-])c1)CC2

Result:
> 100 µM
> 100 µM
> 100 µM
> 100 µM

----------
# System: CCRF-CEM leukemia
# test method notes: NCI tumour cell line growth inhibition, 48 h
Would you kindly list GI50 for each of these molecules?

Below are worked cases with known answers.
CCCCCN(CCCCC)CCC[C@@H](C)[C@H]1CC[C@H]2[C@@H]3[C@H](OCCCN)C[C@@H]4C[C@H](OCCCN)CC[C@]4(C)[C@H]3C[C@H](OCCCN)[C@]12C = 4470 nM
N#Cc1c(N)nc2c(c1-c1ccc(Cl)cc1)COc1ccc(F)cc1-2 = 44200 nM
Cc1ccc(/C(=N/NS(=O)(=O)c2cc(C)c(Cl)cc2Cl)Sc2cc(Cl)c(C)cc2S(N)(=O)=O)cc1 = > 100000 nM
CCCCCSc1ccc2nc(NC(=O)OCC)sc2c1 = 628 nM
CCCCCCCCCCCCCCCCn1cc[n+](C)c1 = 139 nM

Here is the next item to consider.
Notebook: Oc1ccc(N=Nc2ccc(Br)cc2)c(O)c1 , GI50 read as 1910 nM

----------
# Test system: HOP-62 NSCLC
# test method notes: NCI tumour cell line growth inhibition, 48 h
Can you tell me GI50 for the items I'm about to list?

OCC1OC(N2C=C(c3nc4ccccc4s3)C3C=CC=CC32)C(O)C(O)C1O (stereo not given) = 20.8 µM
Cc1[nH]c(C(=O)Nc2ccc(C(=O)NCCN)cc2OC(C)C)c(Cl)c1Cl = 1.95 µM
c1cc[c]([Ge]([O]c2cccc3cccnc23)([c]2ccccc2)[c]2ccccc2)cc1 = 12.7 µM
Cn1cnc([N+](=O)[O-])c1S(=O)(=O)Oc1ccc(Cl)cc1 = 16.1 µM

Next compound, please.
Recorded GI50 for COc1cc(-n2cc(-c3ccc(Cl)cc3)n(-c3ccccc3)c2=O)cc(OC)c1OC on HOP-62 NSCLC was 44.3 µM

----------
# Test system: MALME-3M melanoma
# test method notes: NCI tumour cell line growth inhibition, 48 h
For each of the molecules below, state its TGI.

COc1cccc(/C=N\NC(=O)c2ccncc2)c1O = 88.3 µM

Provide TGI values for the following items, in order.
1. CCCCCCCCCCC/C=C(/C(=O)CCCO[Si](C)(C)C(C)(C)C)C(=O)OC
2. CCCCCCOC(=O)CC1=C(C)/C(=C/c2[nH]c(-c3ccc[nH]3)cc2OC)N=C1C
3. CCn1nc(C2CCN(C(=O)CCO)CC2)nc1-c1cnc(N)c(-c2nnc(C(C)(C)C)o2)n1
4. O=S(O)O.O=S(O)O.[Co].[NH2-].[NH2-].[NH2-].[NH2-]

Result:
["> 100 µM", "1.44 µM", "> 100 µM", "> 100 µM"]

Per the record, CCCCCSc1ccc2nc(NC(=O)OCC)sc2c1 has TGI of > 100 µM
